Source listed as patent US12121500B2.

test: in vitro; conditions: human
experimentalEndpoint: CC50 (µM)
API: value field is a number in µM; no unit string.

C/C(=N\c1ccc(C(F)(F)F)cc1)c1c(C)cc(=O)n(O)c1O [Compound 517]	71.8
C/C(=N\c1ccccc1Cl)c1c(C)cc(O)n(O)c1=O [Compound 668]	82
C/C(=N\c1cccc(Oc2ccccc2)c1)c1c(C)cc(=O)n(O)c1O [Compound 515]	93.6

Now examine the next entry.
input: If you can, please state the reported CC50 value of COC(=O)c1c(C)cc(O)c(=O)c(O)c1Br [Compound 335] .
output: 96.2

* * *

test system: A549 cells
Measured CC50 of individual entries
API: value field is a number in µM; no unit string.

CCc1cccc(N=C(C)c2c(C)cc(=O)n(O)c2O)c1	16.5

Now examine the next entry.
input: If you can, please state the reported CC50 value of `CC[C@H](C)[C@H](NC(=O)OCC1c2ccccc2-c2ccccc21)C(=O)Sc1cccccc1=O` .
output: 67.6
